# target-of-assay: BRD4 (BDII_E352-M457) (Homo sapiens, UniProt O60885)
# Construct: proliferation; Protocol
# assay-comment: TR-FRET bromodomain binding assay, second bromodomain of BRD4
# condition-info: His-tagged BD2, 30 nM Alexa647 probe; TR-FRET protocol A-E given per row
# Excerpt: A time-resolved fluorescence resonance energy transfer (TR-FRET) assay was used to determine the affinities of compounds of the Examples listed in Table 1 for each bromodomain of BRD4. His-tagged first (BD1: amino acids K57-E168) and second (BD2: amino acids E352-E168) bromodomains of BRD4 were expressed and purified. An Alexa647-labeled BET-inhibitor was used as the fluorescent probe in the assay. […]
pKi: −log10 of the molar value.
reported-metric: pKi

Consider the following illustrative entries.
COc1cccc(CNc2ccc(Oc3ccc(F)cc3F)c(-c3cn(C)c4c(=O)[nH]ccc34)c2)c1OCc1ccccc1 : 6.61
CCS(=O)(=O)C(C)c1ccc(Oc2ccc(F)cc2F)c(-c2cn(C)c3c(=O)[nH]ccc23)c1 (single isomer, unassigned) [Example 56] : 7.74
Cn1cc(-c2cc(S(C)(=O)=O)ccc2O[C@H]2CC[C@@H](O)CC2)c2cc[nH]c(=O)c21 : 6.56

1. Cn1cc(-c2cc(CN3CCNCC3)ccc2Oc2ccc(F)cc2F)c2cc[nH]c(=O)c21
2. Cn1cc(-c2cc(CNS(=O)(=O)Cc3ccc(C(F)(F)F)cc3)ccc2Oc2ccc(F)cc2F)c2cc[nH]c(=O)c21
3. Cn1cc(-c2cc(S(=O)(=O)N3CCc4ccccc43)ccc2OCC2CC2)c2cc[nH]c(=O)c21
4. CC(=O)N1CCC(Oc2ccc(S(C)(=O)=O)cc2-c2cn(C)c3c(=O)[nH]ccc23)CC1
5. CCS(=O)(=O)c1cnc(Oc2ccc(F)cc2F)c(-c2cn(C)c3c(=O)[nH]ccc23)c1
Hey, can you sort those molecules up there by pKi, smallest first? Return value: ordered labels per request.
2, 4, 5, 1, 3

Cited source for all entries: patent US9321764B2
